system: Staphylococcus aureus; assay: Antibacterial activity against Staphylococcus aureus ATCC 29213 = CCM 4223 assessed as inhibition of bacterial growth incubated for 24 hrs in presence of BSA by microdilution assay; assay type: functional
Rule: measured MIC below 8 µg/mL gets Fulfilled; anything equal to or greater than 8 µg/mL gets Not fulfilled.

[
  {
    "compound": "CCCCCCCCOP(=O)(CCN(CCCN)CCCN)OCCCOP(=O)(CCN(CCCN)CCCN)OCCCCCCCC.Cl.Cl.Cl.Cl.Cl.Cl (centres undefined)",
    "group": "Fulfilled"
  },
  {
    "compound": "CCCCCCCCCCOP(=O)(CCN(CCCN)CCCN)OCCCCCCCCCCOP(=O)(CCN(CCCN)CCCN)OCCCCCCCCCC.Cl.Cl.Cl.Cl.Cl.Cl (centres undefined)",
    "group": "Fulfilled"
  },
  {
    "compound": "Cl.Cl.Cl.Cl.Cl.Cl.NCCN(CCN)CCP(=O)(OCCCCCCOP(=O)(CCN(CCN)CCN)OCCc1ccccc1)OCCc1ccccc1 (centres undefined)",
    "group": "Not fulfilled"
  },
  {
    "compound": "CCCCC/C=C\\CCCOP(=O)(CCN(CCCN)CCCN)OCCCCCCOP(=O)(CCN(CCCN)CCCN)OCCC/C=C\\CCCCC.Cl.Cl.Cl.Cl.Cl.Cl (centres undefined)",
    "group": "Fulfilled"
  },
  {
    "compound": "Cl.Cl.Cl.Cl.Cl.Cl.N=C(N)NCCCN(CCCNC(=N)N)CCP(=O)(OCCCCCOP(=O)(CCN(CCCNC(=N)N)CCCNC(=N)N)OCC12CC3CC(CC(C3)C1)C2)OCC12CC3CC(CC(C3)C1)C2 (centres undefined)",
    "group": "Fulfilled"
  },
  {
    "compound": "CCCCC/C=C\\CCOP(=O)(CCN(CCCNC(=N)N)CCCNC(=N)N)OCCCCCOP(=O)(CCN(CCCNC(=N)N)CCCNC(=N)N)OCC/C=C\\CCCCC.Cl.Cl.Cl.Cl.Cl.Cl (centres undefined)",
    "group": "Fulfilled"
  },
  {
    "compound": "CCCCCCCCCOP(=O)(CCN(CCCN)CCCN)OCCc1ccc(Cl)cc1.Cl.Cl.Cl (centres undefined)",
    "group": "Not fulfilled"
  },
  {
    "compound": "CC(C)COP(=O)(CCN(CCCN)CCCN)OCCCCCCCCCCOP(=O)(CCN(CCCN)CCCN)OCC(C)C.Cl.Cl.Cl.Cl.Cl.Cl (centres undefined)",
    "group": "Not fulfilled"
  },
  {
    "compound": "Cl.Cl.Cl.Cl.Cl.Cl.NCCCN(CCCN)CCP(=O)(OCCCOP(=O)(CCN(CCCN)CCCN)OCCC12CC3CC(CC(C3)C1)C2)OCCC12CC3CC(CC(C3)C1)C2 (centres undefined)",
    "group": "Fulfilled"
  },
  {
    "compound": "Cl.Cl.Cl.Cl.Cl.Cl.NCCCN(CCCN)CCP(=O)(OCCCCCCOP(=O)(CCN(CCCN)CCCN)OCCCC1CCCCC1)OCCCC1CCCCC1 (centres undefined)",
    "group": "Fulfilled"
  },
  {
    "compound": "CCCCCCOP(=O)(CCN(CCCN)CCCN)OCCCCCCCCOP(=O)(CCN(CCCN)CCCN)OCCCCCC.Cl.Cl.Cl.Cl.Cl.Cl (centres undefined)",
    "group": "Fulfilled"
  },
  {
    "compound": "CCCCCCCCCOP(=O)(CCN(CCCN)CCCN)OCCc1cccc2ccccc12.Cl.Cl.Cl (centres undefined)",
    "group": "Not fulfilled"
  },
  {
    "compound": "Cl.Cl.Cl.Cl.Cl.Cl.NCCCN(CCCN)CCP(=O)(OCCCCCOP(=O)(CCN(CCCN)CCCN)OCC12CC3CC(CC(C3)C1)C2)OCC12CC3CC(CC(C3)C1)C2 (centres undefined)",
    "group": "Fulfilled"
  },
  {
    "compound": "CCCCOP(=O)(CCN(CCN)CCN)OCCCCCCCCCCOP(=O)(CCN(CCN)CCN)OCCCC.Cl.Cl.Cl.Cl.Cl.Cl (centres undefined)",
    "group": "Not fulfilled"
  },
  {
    "compound": "Cl.Cl.Cl.Cl.Cl.Cl.N=C(N)NCCCN(CCCNC(=N)N)CCP(=O)(OCCCCCCCOP(=O)(CCN(CCCNC(=N)N)CCCNC(=N)N)OCCCC(F)(F)F)OCCCC(F)(F)F (centres undefined)",
    "group": "Not fulfilled"
  },
  {
    "compound": "Cl.Cl.Cl.Cl.Cl.Cl.NCCCN(CCCN)CCP(=O)(OCCCOP(=O)(CCN(CCCN)CCCN)OCC12CC3CC(CC(C3)C1)C2)OCC12CC3CC(CC(C3)C1)C2 (centres undefined)",
    "group": "Fulfilled"
  },
  {
    "compound": "CCCCCCCCOP(=O)(CCN(CCCN)CCCN)OCCCCCCOP(=O)(CCN(CCCN)CCCN)OCCCCCCCC.Cl.Cl.Cl.Cl.Cl.Cl (centres undefined)",
    "group": "Fulfilled"
  },
  {
    "compound": "CCC/C=C\\CCOP(=O)(CCN(CCCN)CCCN)OCCCCCCOP(=O)(CCN(CCCN)CCCN)OCC/C=C\\CCC.Cl.Cl.Cl.Cl.Cl.Cl (centres undefined)",
    "group": "Not fulfilled"
  }
]
